This collection of values is drawn from patent US9321767B2.

- System: HeLa cells
- ASSAY METHOD TEXT: Cytotoxicity in HeLa cells, ATP content (ATPlite kit)
- Assay type: cell-based
- RUN PARAMETERS: HeLa cells, three days incubation, ATP content
PROPERTY: TOX-HELA_EC50

Known TOX-HELA_EC50 results, listed for orientation:
- COCCCn1c(Cn2c(=O)n(C3COC3)c3ccncc32)nc2ncccc21: >98.3603 µM
- COCCCn1c(Cn2c(=O)n(C3CC3)c3ccc(F)cc32)nc2ncccc21: >98.3603 µM
- O=c1n(Cc2nc3ncccc3n2CCCC(F)(F)F)c2cnccc2n1C1CC1: >98.3603 µM
- CC(C)CCn1c(Cn2c(=O)n(C3CC3)c3ccccc32)nc2cnccc21: >9.836 µM
- CC(C)CCn1c(Cn2c(=O)n(C3CC3)c3ccncc32)nc2nc(C(F)(F)F)ccc21: >98.3603 µM

Please supply TOX-HELA_EC50 for each of the following items, keeping them in order.
1. CC(C)CCn1c(Cn2c(=O)n(C3CC3)c3ccc(F)cc32)nc2nc(Cl)ccc21
2. O=c1n(Cc2nc3cc(F)cnc3n2CCCCO)c2cnccc2n1C1CC1
3. O=c1n(Cc2nc3cc(Cl)cnc3n2CCCCO)c2cnccc2n1C1CC1
4. COCCCn1c(Cn2c(=O)n(C3CC3)c3ccncc32)nc2ncccc21

1: >9.836 µM; 2: >9.836 µM; 3: >9.836 µM; 4: 4.756 µM

* * *

- Test system: HeLa cells
- ASSAY METHOD TEXT: Cytotoxicity in HeLa cells, ATP content (ATPlite kit)
- Assay type: cell-based
- RUN PARAMETERS: HeLa cells, three days incubation, ATP content
PROPERTY: TOX-HELA_EC50

Known TOX-HELA_EC50 results, listed for orientation:
* CC(C)CCn1c(Cn2c(=O)n(C3COC3)c3ccncc32)nc2cc(Br)cnc21 | >9.836 µM
* CC(C)CCn1c(Cn2c(=O)n(C3CC3)c3ccc(F)cc32)nc2ncccc21 | >9.836 µM

Continue with the next molecule.
Could you share which TOX-HELA_EC50 value was measured for CC(C)CCn1c(Cn2c(=O)n(C3CC3)c3ccncc32)nc2cc(C(=O)O)cnc21 ?
>49.1802 µM
